- Assayed target: T1, bovine serum albumin (BSA) (bovine, UniProt P02769 25-607)
- T1 construct: Control antigen coated at 1% in PBS (pH 7.4); also called negative control antigen
- T1 sequence (P02769 25-607 limits assumed): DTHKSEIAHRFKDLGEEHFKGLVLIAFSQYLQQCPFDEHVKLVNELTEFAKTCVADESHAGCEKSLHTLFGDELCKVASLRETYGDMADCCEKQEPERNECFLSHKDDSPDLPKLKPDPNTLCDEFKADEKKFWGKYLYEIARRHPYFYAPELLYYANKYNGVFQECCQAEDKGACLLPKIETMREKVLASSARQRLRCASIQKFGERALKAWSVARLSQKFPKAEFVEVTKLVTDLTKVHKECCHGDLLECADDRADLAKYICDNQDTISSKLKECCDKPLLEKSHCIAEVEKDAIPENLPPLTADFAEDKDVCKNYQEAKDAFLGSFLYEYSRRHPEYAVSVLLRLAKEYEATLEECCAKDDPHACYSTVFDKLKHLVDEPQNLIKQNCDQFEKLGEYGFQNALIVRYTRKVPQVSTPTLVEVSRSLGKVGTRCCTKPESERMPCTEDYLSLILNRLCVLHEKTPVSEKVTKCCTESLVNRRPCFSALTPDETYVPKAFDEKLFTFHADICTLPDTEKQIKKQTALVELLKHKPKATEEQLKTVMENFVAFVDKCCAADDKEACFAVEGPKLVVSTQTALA
- Procedure summary: phage ELISA, 1% BSA coated, anti-M13-HRP detection
Quick reference for OD492 nm among some binders

{"Binder": "SC06-077 (scFv, Vl 136-248); also called single-chain phage antibody SC06-077) scFv: QVQLVQSGAEVKKPGSSVKVSCKASGGTFSSYAISWVRQAPGQGLEWMGGIIPIFGTANYAQKFQGRVTITADESTSTAYMELSSLRSEDTAVYYCAREGGVGPAFDIWGQGTMVTVSSGTGGSGGTGSGTGGSTDIQMTQSPDSLAVSLGERATINCKSSQSVLHNSNNKNYLAWYQQKPGQPPKLLIYWASTRESGVPDRFSGSGSGTDFTLTISSLQAEDVAVYYCQQYYGSPYTFGQGTKLEIK", "OD492 nm [OD492 nm]": 0.044}
{"Binder": "SC06-079 (scFv, Vl 133-242); also called single-chain phage antibody SC06-079) scFv: EVQLVESGGGLVQPGGSLRLSCAASGFTFSSYAMSWVRQAPGKGLEWVSAISGTGGSAYYADSVKGRFTISRDNSKNTVYLQMNSLRAEDTAVYYCAKGHSSGTNWGQGTLVTVSSGTGGSGGTGSGTGGSTSYVLTQPPSASGTPGQRVTISCSGSSSNIGSNFVYWYQQLPGTAPKLLIYRNNQRPSGVPDRFSGSKSGTSASLAISGLRSEDEADYYCAAWDDSLSGVLFGGGTQLTVL", "OD492 nm [OD492 nm]": 0.048}

Where do these numbers come from? They come from patent US20090169562A1.
